- measurement notes: Solubility of peptide compounds in buffer formulations (Table 5)
- Type: physicochemical
- stated conditions: Buffer pH 1.1 (head; method: 50 mM HCl pH 1.2), 2 h agitation, target 1 mg/ml; read-out: Solubility, Buffer pH 1.1
- Method: Prior to the solubility measurement of a peptide batch, its purity was determined through UHPLC/MS method A. For solubility testing the target concentration was 1 mg pure compound/ml. […] The solubility was determined by the comparison of the UV peak area of 2 μL-injections of a buffered sample diluted 1:10 with a standard curve of a dimethyl sulfoxide reference sample of known concentration. […]
Numbered stars: 1 amine (or outer) side, 2 acyl side, 3 side chain; on linkers, the order of the positions; unused ones are H or OH. Bridge positions count the residues as written; N and C are the ends. Square brackets hold non-standard residues; d marks the D form. Peptide text beside a SMILES is read from it. * marks the point of attachment. X2 = O=C(Cc1ccc(-c2ccc(CC(=O)[*:2])cc2)cc1)[*:1]; Trp(7-Me) = Cc1cccc2c(C[C@H](N)C(=O)O)c[nH]c12; 2Nal = N[C@@H](Cc1ccc2ccccc2c1)C(=O)O; 3Pal = N[C@@H](Cc1cccnc1)C(=O)O; Thp = NC1(C(=O)O)CCOCC1; Me2NCH2CH2 = CN(C)CC*; Aib = CC(C)(N)C(=O)O; Sar = CNCC(=O)O
quantity measured: solubility at 2 h

(Q) Give a short answer stating reported solubility at 2 h for Cc1cccc2c(C[C@@H]3NC(=O)Cc4ccc(cc4)-c4ccc(cc4)CC(=O)NCCCC[C@@H](C(=O)N[C@@H](CC(N)=O)C(=O)N[C@@H](Cc4cccnc4)C(=O)N(C)CC(N)=O)NC(=O)C(C)(C)NC(=O)[C@H](Cc4ccc5ccccc5c4)NC(=O)[C@H](Cc4ccc(OCCN(C)C)cc4)NC(=O)C4(CCOCC4)NC(=O)[C@H](CCC(N)=O)NC3=O)c[nH]c12 [compound 15] ([Trp(7-Me)]Q[Thp]Y(Me2NCH2CH2)[2Nal][Aib]KN[3Pal][Sar]-NH2; linker N-7 via X2) .
(A) ≥ 990 µg/mL
